B1: TPD52L1 (parent)
chain: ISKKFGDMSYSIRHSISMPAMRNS

variants of: B1; experiment: protein stability index of a GFP-peptide fusion (GPS, HEK-293T) (PSI 1-6); higher = more stable; conditions: c terminus: a fixed tail appended;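 further: lentivirally expressed fusions sorted by FACS into six bins by GFP to DsRed ratio, PSI derived from sequencing read proportions per bin multiplied by bin number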
For each of the variants below, state its protein stability index.
Please reply with the number alone, leaving off any unit.

Lab note: `N23M` gave protein stability index of 2.05

Per the records, this variant ( `S24L` ) has protein stability index equal to 1.96

// protein stability index lookup, variant = `S9I` , result: 2.59

// sample `F5Q` , its protein stability index was 2.78

protein stability index for `I16C` is 2.02

// protein stability index lookup, variant = `S17C` , result: 1.92

Briefly, protein stability index measured for `K4Q` : 2.09

protein stability index recorded for this variant, `K3P` , is 2.63

Record summary for `N23T` : reported protein stability index = 2.31

Reported protein stability index ( `M18T` ) = 2.58

Recorded result, `F5H` , protein stability index: 2.72

The value of protein stability index measured for the variant `Y10E` turned out to be 2.88

Sample `S9V` ; protein stability index observed: 2.03

get_value(item= `P19F` , readout=protein stability index) returns 1.87

Please fill in: protein stability index reported for `D7Q` = 2.04

Entry under test: `H14V` . Its protein stability index was 4.3

Value of protein stability index reported for the variant `S2V` is 2.34

protein stability index recorded for this variant, `I12E` , is 3.36

For `R22G` the variant record lists protein stability index as 2.66

Lab note: `S15H` gave protein stability index of 1.85

Reported protein stability index for `K4D` was 2.47

Noted for `I1V` : its protein stability index reads 3.17
